- Assayed target: Anti-CD28 Fab (SEQ ID NOs: 202, 203)
- Sequence (VH, as listed by the source, chain 1 of 2): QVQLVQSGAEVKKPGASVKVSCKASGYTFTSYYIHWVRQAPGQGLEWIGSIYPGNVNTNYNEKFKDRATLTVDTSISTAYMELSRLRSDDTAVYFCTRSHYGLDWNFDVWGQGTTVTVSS
- Sequence (VL, as listed by the source, chain 2 of 2): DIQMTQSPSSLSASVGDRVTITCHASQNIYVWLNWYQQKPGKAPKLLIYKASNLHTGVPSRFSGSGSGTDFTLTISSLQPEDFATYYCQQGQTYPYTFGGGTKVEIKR
- Test description: phage binding ELISA on captured Fab, competitor CD28 antigen;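 further: clonal phage supernatant binding in wells preincubated with CD28 antigen in blocking buffer, detected by HRP-conjugated anti-M13 antibody ELISA, compared with blocking buffer alone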
Observation type: Anti-CD28 Fab signal in the presence of CD28
Numbers only.

For each of the binders below, state Anti-CD28 Fab signal in the presence of CD28.
1. YCDGHTPQFRAKCL [Phage-859]
2. YCDGHVTEYMAKCL [Phage-861]
3. YCDGHSMEYMAKCL [Phage-821]
4. YCEGHLDEYLQKCM [Phage-867]
5. YCAGHLPQYVSKCL [Phage-836]
6. YCEGHFGMYMSKCL [Phage-833]
7. YCDGHNPVYLAKCL [Phage-830]

0.07
0.07
0.07
0.08
0.06
0.07
0.08
